Target: T1, Gadd45β/MKK7 complex (biotin-hGadd45β with coated GST-MKK7, ELISA format) (human, UniProt O75293 1-160; O14733 1-419, biotinylated (sites not given))
T1 construct: not shown: glutathione S-transferase (GST) fusion partner
T1 sequence (looked up) 1: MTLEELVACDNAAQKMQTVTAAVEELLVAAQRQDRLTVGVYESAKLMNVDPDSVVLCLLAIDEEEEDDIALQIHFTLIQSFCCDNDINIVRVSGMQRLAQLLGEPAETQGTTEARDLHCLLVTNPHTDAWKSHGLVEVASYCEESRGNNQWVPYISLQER
T1 sequence (looked up) 2: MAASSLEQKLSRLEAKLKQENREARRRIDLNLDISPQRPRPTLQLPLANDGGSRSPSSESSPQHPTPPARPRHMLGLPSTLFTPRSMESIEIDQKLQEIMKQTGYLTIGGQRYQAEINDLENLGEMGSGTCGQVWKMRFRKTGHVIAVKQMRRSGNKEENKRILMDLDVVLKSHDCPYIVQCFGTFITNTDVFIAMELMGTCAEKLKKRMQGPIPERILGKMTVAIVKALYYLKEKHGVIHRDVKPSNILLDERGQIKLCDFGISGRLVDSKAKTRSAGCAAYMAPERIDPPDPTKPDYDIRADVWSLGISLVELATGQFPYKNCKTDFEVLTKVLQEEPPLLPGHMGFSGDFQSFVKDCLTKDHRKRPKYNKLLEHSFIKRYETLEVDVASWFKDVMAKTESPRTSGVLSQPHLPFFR
Assay: competition ELISA; coated MKK7 42 nM, biotin-hGadd45β 21 nM, competitor 42 nM nominal
* marks the point of attachment. Fmoc = O=C(OCC1c2ccccc2-c2ccccc21)*; βAla = NCCC(=O)O
MEASURED PROPERTY: % Inhibition of Gadd45β-MKK7 binding (%)

a = {Fmoc-βAla-βAla}-YDHL-NH2 (SMILES CC(C)C[C@H](NC(=O)[C@H](Cc1c[nH]cn1)NC(=O)[C@H](CC(=O)O)NC(=O)[C@H](Cc1ccc(O)cc1)NC(=O)CCNC(=O)CCNC(=O)OCC1c2ccccc2-c2ccccc21)C(N)=O) [Fmoc(βAla)2-YDHL-NH2]
b = {Fmoc-βAla-βAla}-YDHD-NH2 (SMILES NC(=O)[C@H](CC(=O)O)NC(=O)[C@H](Cc1c[nH]cn1)NC(=O)[C@H](CC(=O)O)NC(=O)[C@H](Cc1ccc(O)cc1)NC(=O)CCNC(=O)CCNC(=O)OCC1c2ccccc2-c2ccccc21) [Fmoc(βAla)2-YDHD-NH2]
c = {Fmoc-βAla-βAla}-YDHY-NH2 (SMILES NC(=O)[C@H](Cc1ccc(O)cc1)NC(=O)[C@H](Cc1c[nH]cn1)NC(=O)[C@H](CC(=O)O)NC(=O)[C@H](Cc1ccc(O)cc1)NC(=O)CCNC(=O)CCNC(=O)OCC1c2ccccc2-c2ccccc21) [Fmoc(βAla)2-YDHY-NH2]
Input line: Output the entries ranked by % Inhibition of Gadd45β-MKK7 binding from maximum down to minimum. Show the ranking through the labels, in the order asked for.
Output line: c, a, b
(c: 63%, a: 33%, b: 0%)
